Hey, just so you know, these numbers are from patent US20250084155A1.

Experimental System: T1, HSP70 (human HSP70; the antigen of the binning, humanization and variant binding assays) (human, UniProt P0DMV8 1-641, limits assumed)
T1 construct: also called hu HSP70
T1 sequence (P0DMV8 whole entry, change not shown): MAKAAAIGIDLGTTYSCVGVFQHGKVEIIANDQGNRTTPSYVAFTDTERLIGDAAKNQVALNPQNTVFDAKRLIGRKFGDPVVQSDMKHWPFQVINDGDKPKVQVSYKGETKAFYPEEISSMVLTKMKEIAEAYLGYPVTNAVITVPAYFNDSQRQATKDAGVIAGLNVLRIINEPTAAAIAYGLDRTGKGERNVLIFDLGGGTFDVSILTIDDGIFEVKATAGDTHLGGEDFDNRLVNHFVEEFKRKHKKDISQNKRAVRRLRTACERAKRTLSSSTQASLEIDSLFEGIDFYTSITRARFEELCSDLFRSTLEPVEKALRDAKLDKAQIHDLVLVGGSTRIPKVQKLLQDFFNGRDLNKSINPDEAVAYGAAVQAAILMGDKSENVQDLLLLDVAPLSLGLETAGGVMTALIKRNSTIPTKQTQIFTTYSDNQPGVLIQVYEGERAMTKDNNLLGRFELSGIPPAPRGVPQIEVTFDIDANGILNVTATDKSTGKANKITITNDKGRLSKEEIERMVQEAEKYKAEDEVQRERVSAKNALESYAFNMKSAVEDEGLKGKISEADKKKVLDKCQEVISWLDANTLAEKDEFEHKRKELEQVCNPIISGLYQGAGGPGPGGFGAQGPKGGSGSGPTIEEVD
Assay: BLI, antibody on sensor

Binder	koff
h77A-16 (antibody, V domains shown) VH: EVQLVESGGGLVKPGGSLRLSCKASGYTFTNYGMNWVRQAPGKGLKWVGWINTYTGEPTYADDFKGRFTFSRDDSKNTLYLQMNSLKTEDTAVYFCARYDHAMDYWGQGTSVTVSS VL: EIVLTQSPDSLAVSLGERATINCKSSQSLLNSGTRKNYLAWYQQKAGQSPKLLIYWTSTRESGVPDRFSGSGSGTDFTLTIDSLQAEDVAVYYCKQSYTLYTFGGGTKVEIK	0.00046 s⁻¹
h77A-9 (antibody, V domains shown) VH: QIQLVQSGAEVKKPGSSVKVSCKASGYTFTNYGMNWVRQAPGQGLEWMGWINTYTGEPTYADDFKGRFTFTADESTSTAYMELSSLRSEDTAVYFCARYDHAMDYWGQGTLVTVSS VL: DIQMTQSPSSLSASVGDRVTITCKSSQSLLNSGTRKNYLAWYQQKPGKVPKLLIYWTSTRESGVPSRFSGSGSGTDFTLTISSLQPEDVATYYCKQSYTLYTFGGGTKLEIK	0.000348 s⁻¹
